Ref: ChEMBL document CHEMBL1122614

tested on: Rattus norvegicus; test: Percentage change in volume of pleural fluid in the 5-h Evans Blue-Carrageenan pleural assay for the compound at dose 100 mg/kg; assay type: functional
parameter: Change (%)
Write the value in % as a bare number.

| compound | units_text | Change |
| --- | --- | --- |
| Cc1ccc(NC(C)C(=O)O)c(C(=O)c2ccccc2)c1 (stereo not given) | % | -15 |

Attention now turns to another entry.
The compound listed as COc1ccc(C(=O)c2ccccc2NC(C)C(=O)O)cc1 (stereo not given) has a reported Change of -22

----------
molecular target: Cyclooxygenase (Bos taurus, UniProt O62664+O62698)
parameter: IC50 (µM)
Write the value in µM as a bare number.

Past entries and their recorded results:
| compound | parameter | measured_value |
| --- | --- | --- |
| Cc1ccc2c(-c3ccccc3)nc(=O)n(C(C)C(=O)O)c2c1 (centres undefined) | IC50 | 300 |
| CC(Nc1ccccc1C(=O)c1ccc(Cl)cc1)C(=O)O (centres undefined) | IC50 | 60 |

Attention now turns to another entry.
Measured IC50 for this entry Cc1ccc2c(-c3ccccc3)nc(=O)n(C(C)C)c2c1 on Cyclooxygenase (Bos taurus, UniProt O62664+O62698): 0.07
